Assignment: determine reported pKd for the given molecules.
Target: Bacillus subtilis
Assay: Binding dissociation constant towards 3'-Fl-AM1A-Rhd in Bacillus subtilis tyrS
One number for each entry, as −log10 of the molar value.

Field: example entries. Status: answers known.
The reported Bacillus subtilis pKd of `NC[C@@H]1O[C@@H](O[C@H]2[C@H](O)[C@@H](O[C@H]3O[C@H](CO)[C@@H](O)[C@H](N)[C@H]3O)[C@H](N)C[C@@H]2N)[C@@H](O)[C@H](O)[C@H]1O` is 3.68

The reported Bacillus subtilis pKd of `NC[C@H]1O[C@H](O[C@H]2[C@H](O)[C@@H](O[C@H]3O[C@H](CO)[C@@H](O)[C@H](N)[C@H]3O)[C@H](N)C[C@@H]2N)[C@H](N)[C@@H](O)[C@@H]1O` is 3.82

Next:
The reported Bacillus subtilis pKd of CN[C@@H]1[C@@H](O)[C@@H](O[C@@H]2[C@@H](O)[C@H](O[C@H]3O[C@H](C(C)N)CC[C@H]3N)[C@@H](N)C[C@H]2N)OC[C@]1(C)O (stereo partly drawn) is 3.92
